B1: Osa-1-4 twister ribozyme (parent)
chain: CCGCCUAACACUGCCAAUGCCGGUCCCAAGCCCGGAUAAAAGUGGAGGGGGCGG

# Variants of: B1
# Experiment: self-cleavage, relative activity (ratio to wild type); higher = more cleavage; co-transcriptional
Decision: self-cleavage compared against 0.05; not below it gives y, below it gives n.

Problem: Is the recorded value of self-cleavage equal to or greater than 0.05 for this variant? A17C U24G
Solution: n

Problem: Is the recorded value of self-cleavage equal to or greater than 0.05 for this variant? C25A G48C
Solution: n

Problem: Is the recorded value of self-cleavage equal to or greater than 0.05 for this variant? G13C G54A
Solution: n

Problem: Is the recorded value of self-cleavage equal to or greater than 0.05 for this variant? A16C U18C
Solution: y

Problem: Is the recorded value of self-cleavage equal to or greater than 0.05 for this variant? A10U C14A
Solution: n

Problem: Is the recorded value of self-cleavage equal to or greater than 0.05 for this variant? G35U G44A
Solution: y

Problem: Is the recorded value of self-cleavage equal to or greater than 0.05 for this variant? C14U G23U
Solution: n

Problem: Is the recorded value of self-cleavage equal to or greater than 0.05 for this variant? A8U C21G
Solution: y

Problem: Is the recorded value of self-cleavage equal to or greater than 0.05 for this variant? C52U U37C
Solution: y

Problem: Is the recorded value of self-cleavage equal to or greater than 0.05 for this variant? A36G G34A
Solution: y

Problem: Is the recorded value of self-cleavage equal to or greater than 0.05 for this variant? G54C U18C
Solution: y

Problem: Is the recorded value of self-cleavage equal to or greater than 0.05 for this variant? A29C C11U
Solution: n

Problem: Is the recorded value of self-cleavage equal to or greater than 0.05 for this variant? A40U C20A
Solution: y

Problem: Is the recorded value of self-cleavage equal to or greater than 0.05 for this variant? G30C G47A
Solution: n

Problem: Is the recorded value of self-cleavage equal to or greater than 0.05 for this variant? A41U G44U
Solution: y

Problem: Is the recorded value of self-cleavage equal to or greater than 0.05 for this variant? C14A G48C
Solution: n

Problem: Is the recorded value of self-cleavage equal to or greater than 0.05 for this variant? A28G G42C
Solution: y

Problem: Is the recorded value of self-cleavage equal to or greater than 0.05 for this variant? "G44U"
Solution: y

Problem: Is the recorded value of self-cleavage equal to or greater than 0.05 for this variant? C14A U18C
Solution: y

Reference source for all entries: the RNAGym collection of RNA variant scans (doi:10.1002/anie.201605470)
